Kindly supply the reported binding signal values for the records listed here.
- target-desc: GST-ANAC055(1-171) (Arabidopsis thaliana, UniProt Q9LDY8 1-171)
- Sequence: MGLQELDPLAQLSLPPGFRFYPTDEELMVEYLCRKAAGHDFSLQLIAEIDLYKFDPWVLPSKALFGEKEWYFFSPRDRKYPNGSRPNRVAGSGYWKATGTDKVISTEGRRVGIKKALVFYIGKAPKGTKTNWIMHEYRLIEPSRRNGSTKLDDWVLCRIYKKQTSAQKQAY
- experiment: universal protein binding microarray (PBM); high values mean tight binding
- assay-setup: protein: recombinant; tags: GST; chain copies: 2; dsDNA, one strand shown
Kindly provide the numeric value in E-score only, without the unit symbol.

Challenge: Retrieve binding signal measured for `ACGTAACA` and print it.
Response given: 0.413

Challenge: Retrieve binding signal measured for `TAGCGTGA` and print it.
Response given: 0.114

Challenge: Retrieve binding signal measured for `ATTACGTG` and print it.
Response given: 0.432

Challenge: Retrieve binding signal measured for `CGTACGCA` and print it.
Response given: 0.328

Challenge: Retrieve binding signal measured for `ACGTAAAG` and print it.
Response given: 0.317

Challenge: Retrieve binding signal measured for `ATTGCGTA` and print it.
Response given: 0.333

Challenge: Retrieve binding signal measured for `ATTTCTTA` and print it.
Response given: 0.0799

Challenge: Retrieve binding signal measured for `CACGTTAG` and print it.
Response given: 0.0916

Challenge: Retrieve binding signal measured for `GTAAGGAA` and print it.
Response given: 0.193

Challenge: Retrieve binding signal measured for `CGACACGC` and print it.
Response given: 0.131

Challenge: Retrieve binding signal measured for `TACGTCAA` and print it.
Response given: 0.194

Challenge: Retrieve binding signal measured for `CAGTTGAC` and print it.
Response given: 0.0582

Challenge: Retrieve binding signal measured for `TGGCGTAA` and print it.
Response given: 0.127

Challenge: Retrieve binding signal measured for `CGAGGAAA` and print it.
Response given: 0.139

Challenge: Retrieve binding signal measured for `GTACGCCA` and print it.
Response given: 0.153

Challenge: Retrieve binding signal measured for `AAGCGTGT` and print it.
Response given: 0.167

Challenge: Retrieve binding signal measured for `CCACGGAA` and print it.
Response given: 0.326

Challenge: Retrieve binding signal measured for `AAAGGTCA` and print it.
Response given: 0.106

Challenge: Retrieve binding signal measured for `GTACGTTA` and print it.
Response given: 0.226

Challenge: Retrieve binding signal measured for `GAAGAAAC` and print it.
Response given: 0.168

Challenge: Retrieve binding signal measured for `AGCGTGTC` and print it.
Response given: 0.174

Challenge: Retrieve binding signal measured for `CACGGAAG` and print it.
Response given: 0.435

====

- target-desc: GST-VND7 NAC domain (Arabidopsis thaliana, UniProt Q9C8W9 9-158)
- Sequence: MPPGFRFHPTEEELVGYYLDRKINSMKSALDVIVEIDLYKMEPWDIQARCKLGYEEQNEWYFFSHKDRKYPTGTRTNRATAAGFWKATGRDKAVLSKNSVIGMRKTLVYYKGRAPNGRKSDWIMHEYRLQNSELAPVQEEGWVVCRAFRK
- experiment: universal protein binding microarray (PBM); transcription factors of Arabidopsis thaliana; high values mean tight binding
- assay-setup: protein: recombinant; tags: GST; chain copies: 2; dsDNA, one strand shown
measured-attribute: binding signal (E-score)
Kindly provide the numeric value in E-score only, without the unit symbol.

Challenge: Retrieve binding signal measured for `ACGTTACT` and print it.
Response given: 0.326

Challenge: Retrieve binding signal measured for `GACTTTTA` and print it.
Response given: 0.149

Challenge: Retrieve binding signal measured for `GAAGTAAA` and print it.
Response given: 0.18

Challenge: Retrieve binding signal measured for `AAGAAACC` and print it.
Response given: 0.139

Challenge: Retrieve binding signal measured for `GTCAAACA` and print it.
Response given: 0.0699

Challenge: Retrieve binding signal measured for `GTAAGAAA` and print it.
Response given: 0.19

Challenge: Retrieve binding signal measured for `ACGTATCT` and print it.
Response given: 0.313

Challenge: Retrieve binding signal measured for `CGAGGAAA` and print it.
Response given: 0.173

Challenge: Retrieve binding signal measured for `ACGCCATG` and print it.
Response given: 0.0848

Challenge: Retrieve binding signal measured for `ACACGCAT` and print it.
Response given: 0.33

Challenge: Retrieve binding signal measured for `AGTCAAAT` and print it.
Response given: 0.152

Challenge: Retrieve binding signal measured for `CTAAGCAA` and print it.
Response given: 0.184

Challenge: Retrieve binding signal measured for `CTTTCTTC` and print it.
Response given: 0.0647

Challenge: Retrieve binding signal measured for `GTACGCCA` and print it.
Response given: 0.114

Challenge: Retrieve binding signal measured for `TTACGAAA` and print it.
Response given: 0.233

Challenge: Retrieve binding signal measured for `ATGGCGTA` and print it.
Response given: 0.192

Challenge: Retrieve binding signal measured for `GCGTGTCA` and print it.
Response given: 0.189

Challenge: Retrieve binding signal measured for `GTACGCAA` and print it.
Response given: 0.437

Challenge: Retrieve binding signal measured for `TCACGTAA` and print it.
Response given: 0.44

Challenge: Retrieve binding signal measured for `CGTGCACG` and print it.
Response given: 0.391

Challenge: Retrieve binding signal measured for `CTTGCGTC` and print it.
Response given: 0.058

Challenge: Retrieve binding signal measured for `ACGGAACA` and print it.
Response given: 0.409

Challenge: Retrieve binding signal measured for `CGTCAAAC` and print it.
Response given: 0.129

Challenge: Retrieve binding signal measured for `GCACGCTA` and print it.
Response given: 0.0845

Challenge: Retrieve binding signal measured for `ACGCAACG` and print it.
Response given: 0.316

Challenge: Retrieve binding signal measured for `CCCCACCC` and print it.
Response given: 0.171

Challenge: Retrieve binding signal measured for `CTACGTTA` and print it.
Response given: 0.164

Challenge: Retrieve binding signal measured for `TACGCTAA` and print it.
Response given: 0.131

Challenge: Retrieve binding signal measured for `CACACGTC` and print it.
Response given: 0.176

Challenge: Retrieve binding signal measured for `GGCGTAAC` and print it.
Response given: 0.0835

Challenge: Retrieve binding signal measured for `ACGTAACC` and print it.
Response given: 0.414

Challenge: Retrieve binding signal measured for `ATATTGAC` and print it.
Response given: 0.0695

Challenge: Retrieve binding signal measured for `ATGCGTAA` and print it.
Response given: 0.188

Challenge: Retrieve binding signal measured for `CACGGCAC` and print it.
Response given: 0.485

Challenge: Retrieve binding signal measured for `AAGCGTGT` and print it.
Response given: 0.213

Challenge: Retrieve binding signal measured for `ACCTTAAC` and print it.
Response given: 0.077

Challenge: Retrieve binding signal measured for `ATGTCAAC` and print it.
Response given: 0.124

Challenge: Retrieve binding signal measured for `GACGTGTA` and print it.
Response given: 0.338

Challenge: Retrieve binding signal measured for `AGTCGTGC` and print it.
Response given: 0.273

Challenge: Retrieve binding signal measured for `AGTCTGAC` and print it.
Response given: 0.0919

Challenge: Retrieve binding signal measured for `ATGACGTG` and print it.
Response given: 0.322

Challenge: Retrieve binding signal measured for `ATTGCGTG` and print it.
Response given: 0.46

Challenge: Retrieve binding signal measured for `GAGGGTAA` and print it.
Response given: 0.079

Challenge: Retrieve binding signal measured for `GAAGCAAC` and print it.
Response given: 0.228

Challenge: Retrieve binding signal measured for `ACGTTTCC` and print it.
Response given: 0.359

Challenge: Retrieve binding signal measured for `GTATTGAC` and print it.
Response given: 0.0877

Challenge: Retrieve binding signal measured for `CAACACGC` and print it.
Response given: 0.218

Challenge: Retrieve binding signal measured for `ACACGTAA` and print it.
Response given: 0.476

Challenge: Retrieve binding signal measured for `CACACGCA` and print it.
Response given: 0.353

Challenge: Retrieve binding signal measured for `AGCTTGAC` and print it.
Response given: 0.099

Challenge: Retrieve binding signal measured for `CACGGAAC` and print it.
Response given: 0.478

Challenge: Retrieve binding signal measured for `GTACGGAA` and print it.
Response given: 0.425

Challenge: Retrieve binding signal measured for `ACGTAATC` and print it.
Response given: 0.44

Challenge: Retrieve binding signal measured for `ACGTTAAC` and print it.
Response given: 0.207

Challenge: Retrieve binding signal measured for `ACACGTAT` and print it.
Response given: 0.381

Challenge: Retrieve binding signal measured for `TACGTTAA` and print it.
Response given: 0.173

Challenge: Retrieve binding signal measured for `ATACGCCA` and print it.
Response given: 0.247

Challenge: Retrieve binding signal measured for `AAGGGAAA` and print it.
Response given: 0.0885

Challenge: Retrieve binding signal measured for `CACGTAAA` and print it.
Response given: 0.346

Challenge: Retrieve binding signal measured for `AGACGTGA` and print it.
Response given: 0.348

Challenge: Retrieve binding signal measured for `CTTACGCA` and print it.
Response given: 0.295

Challenge: Retrieve binding signal measured for `AGTAAGTA` and print it.
Response given: 0.083

Challenge: Retrieve binding signal measured for `TCGCGTAA` and print it.
Response given: 0.14

Challenge: Retrieve binding signal measured for `AGAAGCAA` and print it.
Response given: 0.234

Challenge: Retrieve binding signal measured for `ATAAGTAA` and print it.
Response given: 0.18

Challenge: Retrieve binding signal measured for `ATGCCGTA` and print it.
Response given: 0.432

Challenge: Retrieve binding signal measured for `ACGGAACT` and print it.
Response given: 0.445

Challenge: Retrieve binding signal measured for `GAAAGGAA` and print it.
Response given: 0.231

Challenge: Retrieve binding signal measured for `CAAGTAAC` and print it.
Response given: 0.0947

Challenge: Retrieve binding signal measured for `AAAGTCAT` and print it.
Response given: 0.121

Challenge: Retrieve binding signal measured for `ACGTAACG` and print it.
Response given: 0.409

Challenge: Retrieve binding signal measured for `ACGTAAGC` and print it.
Response given: 0.431

Challenge: Retrieve binding signal measured for `ATAGTCAA` and print it.
Response given: 0.12

Challenge: Retrieve binding signal measured for `AAATACGT` and print it.
Response given: 0.263

Challenge: Retrieve binding signal measured for `CAAAGTCA` and print it.
Response given: 0.0536

Challenge: Retrieve binding signal measured for `GGAAGTAA` and print it.
Response given: 0.0641

Challenge: Retrieve binding signal measured for `CAAGCAAG` and print it.
Response given: 0.14

Challenge: Retrieve binding signal measured for `ACGCAAGG` and print it.
Response given: 0.128

Challenge: Retrieve binding signal measured for `TTACTCAA` and print it.
Response given: 0.126

Challenge: Retrieve binding signal measured for `ACGTAACT` and print it.
Response given: 0.474

Challenge: Retrieve binding signal measured for `AGTCAACT` and print it.
Response given: 0.0783

Challenge: Retrieve binding signal measured for `AGATTGAC` and print it.
Response given: 0.0768

Challenge: Retrieve binding signal measured for `AGACGTAA` and print it.
Response given: 0.42

Challenge: Retrieve binding signal measured for `AAGCAACC` and print it.
Response given: 0.136

Challenge: Retrieve binding signal measured for `ACGTAAAG` and print it.
Response given: 0.283

Challenge: Retrieve binding signal measured for `ATTGACCA` and print it.
Response given: 0.0794

Challenge: Retrieve binding signal measured for `CTTTCCTC` and print it.
Response given: 0.0728

Challenge: Retrieve binding signal measured for `ACGGCACT` and print it.
Response given: 0.453

Challenge: Retrieve binding signal measured for `TAACGTGA` and print it.
Response given: 0.0561

Challenge: Retrieve binding signal measured for `AGAGGGAA` and print it.
Response given: 0.0972

Challenge: Retrieve binding signal measured for `ATACGTAA` and print it.
Response given: 0.458
